From: patent US7863416B2

Target: human ORL1 (Homo sapiens, UniProt P41146)
Construct: expressed in transfected cells; host or cells: CHO cells (G418-selected)
Sequence (P41146 whole entry): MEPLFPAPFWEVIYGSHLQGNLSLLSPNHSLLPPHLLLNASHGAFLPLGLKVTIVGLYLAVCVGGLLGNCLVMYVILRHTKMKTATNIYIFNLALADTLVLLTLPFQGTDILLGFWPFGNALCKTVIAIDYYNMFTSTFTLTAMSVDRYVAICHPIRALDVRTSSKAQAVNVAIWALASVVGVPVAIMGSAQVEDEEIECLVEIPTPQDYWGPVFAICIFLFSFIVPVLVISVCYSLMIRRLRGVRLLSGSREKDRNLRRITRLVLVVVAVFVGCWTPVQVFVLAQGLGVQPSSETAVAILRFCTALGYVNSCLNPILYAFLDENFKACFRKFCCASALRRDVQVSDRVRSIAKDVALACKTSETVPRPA
Assay: Stimulation of [35S]GTPγS binding in membranes of CHO cells transfected with human ORL-1
Format: biochemical
Conditions: read-out: % Stimulation ± SEM of [35S]GTPγS binding
Numbered stars: 1 amine (or outer) side, 2 acyl side, 3 side chain; on linkers, the order of the positions; unused ones are H or OH. Square brackets hold non-standard residues; d marks the D form. Peptide text beside a SMILES is read from it. * marks the point of attachment. ξ: configuration not given here. Phe(4-NO2) = N[C@@H](Cc1ccc([N+](=O)[O-])cc1)C(=O)O; Phe(4-CH2NH2) = NCc1ccc(C[C@H](N)C(=O)O)cc1; Phe(4-F) = N[C@@H](Cc1ccc(F)cc1)C(=O)O; Phe(4-Me) = Cc1ccc(C[C@H](N)C(=O)O)cc1; ξβ2hAla = CC(CN[*:1])C(=O)[*:2]; Pentanoyl = CCCCC(=O)*
MEASUREMENT_NAME: Emax

COMPOUND: CCCCC(=O)N[C@@H](CCCNC(=N)N)C(=O)N[C@@H](Cc1ccc(O)cc1)C(=O)N[C@@H](Cc1ccc(O)cc1)C(=O)N[C@@H](CCCNC(=N)N)C(=O)N[C@@H](Cc1c[nH]c2ccccc12)C(=O)N[C@@H](CCCNC(=N)N)C(N)=O [VII-7-B, Pentanoyl-Arg-Tyr-Tyr-Arg-Trp-Arg-NH2] (Pentanoyl-RYYRWR-NH2)
TEST_TARGET: human ORL1 (Homo sapiens, UniProt P41146)
Emax: < 20%
--
COMPOUND: CC(=O)N[C@@H](CCCNC(=N)N)C(=O)N[C@@H](Cc1ccc(O)cc1)C(=O)N[C@@H](Cc1ccc(CN)cc1)C(=O)N[C@@H](CCCNC(=N)N)C(=O)N[C@@H](Cc1c[nH]c2ccccc12)C(=O)N[C@@H](CCCNC(=N)N)C(N)=O [VII-79-A, Ac-Arg-Tyr-Phe(4-CH2NH2)-Arg-Trp-Arg-NH2] (Ac-RY[Phe(4-CH2NH2)]RWR-NH2)
TEST_TARGET: human ORL1 (Homo sapiens, UniProt P41146)
Emax: < 20%
--
COMPOUND: CC(=O)N[C@@H](CCCNC(=N)N)C(=O)N[C@@H](Cc1ccc(F)cc1)C(=O)N[C@@H](Cc1ccc(F)cc1)C(=O)N[C@@H](CCCNC(=N)N)C(=O)N[C@@H](Cc1c[nH]c2ccccc12)C(=O)N[C@@H](CCCNC(=N)N)C(N)=O [VII-33-B, Ac-Arg-Phe(4-F)-Phe(4-F)-Arg-Trp-Arg-NH2] (Ac-R[Phe(4-F)][Phe(4-F)]RWR-NH2)
TEST_TARGET: human ORL1 (Homo sapiens, UniProt P41146)
Emax: < 20%
--
COMPOUND: CC(CN)C(=O)N[C@@H](CCCNC(=N)N)C(=O)N[C@@H](Cc1ccc(O)cc1)C(=O)N[C@@H](Cc1ccc(O)cc1)C(=O)N[C@@H](CCCNC(=N)N)C(=O)N[C@@H](Cc1c[nH]c2ccccc12)C(=O)N[C@@H](CCCNC(=N)N)C(N)=O (stereo partly drawn) [VII-3-A] (ξβ2hAla-RYYRWR-NH2)
TEST_TARGET: human ORL1 (Homo sapiens, UniProt P41146)
Emax: 29.1%
--
COMPOUND: CC(=O)N[C@@H](CCCNC(=N)N)C(=O)N[C@@H](Cc1ccc(C)cc1)C(=O)N[C@@H](Cc1ccc(O)cc1)C(=O)N[C@@H](CCCNC(=N)N)C(=O)N[C@@H](Cc1c[nH]c2ccccc12)C(=O)N[C@@H](CCCNC(=N)N)C(N)=O [VII-15-B, Ac-Arg-Phe(4-Me)-Tyr-Arg-Trp-Arg-NH2] (Ac-R[Phe(4-Me)]YRWR-NH2)
TEST_TARGET: human ORL1 (Homo sapiens, UniProt P41146)
Emax: 59.8%

For the next question, use this compound.
Form field Emax, entry CC(=O)N[C@@H](CCCNC(=N)N)C(=O)N[C@@H](Cc1ccc([N+](=O)[O-])cc1)C(=O)N[C@@H](Cc1ccc(O)cc1)C(=O)N[C@@H](CCCNC(=N)N)C(=O)N[C@@H](Cc1c[nH]c2ccccc12)C(=O)N[C@@H](CCCNC(=N)N)C(N)=O [VII-23-B, Ac-Arg-Phe(NO2)-Tyr-Arg-Trp-Arg-NH2] (Ac-R[Phe(4-NO2)]YRWR-NH2) : 56.6%
